Test: protease stability score; higher = more stable; yeast display proteolysis, trypsin and chymotrypsin;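 further: log10 excess protease needed over predicted unfolded state with 0 meaning unfolded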
Known protease stability score of a selection of sequences
API note: the answer field is a bare number with no unit suffix.

Field: example entries. Status: answers known.
DEEDVDRAARKFAEGNPDDVLKLADPNAELHVGDQTVHGKEDLERVMELDKRRIDHIHVNSMSVQGDNVKVLFKVVVNGRNIEFTLTANAHNGSIQFVMLNFTDERDEDKRRKALS	0.28
DDDAVRQVHTFWRILERGNSDRATEMLDENARVEVGDRSLHGREKIVTQQYRLYTQARIEVERYSAQDHGNKVHAFVLVVVHVNGTPHRFTVDVNFVFQNGRFKSIHLQVSEEQLRQEER	0.604

input: Given the entry `EHEQSKLMEHLLRIVETGDDDEFRKNADPNVKFVYGDKEYDGREEAAKALREIKTELRFQLNDVEIRVENGVIEINYDFTANHNGRPQRRTQRATAEYDNGKLKSWSVRDDG` , report its measured protease stability score.
output: -0.172

input: Another sequence: `DEETNKKFASELVHVLRTGDDERLKSMADENATLEVGDKTFHGREEMRKAAEEWQKEIDDLKIESLHVNGDKVVIHFVFTVNGRTDRQIMHLHFDNGKIKSAKMHSG`
output: 0.96

input: Another sequence: `DEEALKRVEKFWEALNTGNEDELRKQLDPNARIRIGDKDIQGREDMAKWVRRVNRQMKMTVTIEDMQTRPGRAEIDAKASVNHNGRPNQHDVKLSAEFHNGQITSLTVQLKG`
output: 0.592

input: Another sequence: `DDSENRNFHQFVRDWTTGNPEKLAELADENARVNVGDKTVHGRDHIRTLFEKLIRRMDIELRDVKFQKSNGEISIKARMVLNENGRPKEFVMKNNAQAEGEKIKNFVLNDDS`
output: 0.048

input: Another sequence: `DEKRALEVIKRYAEYLKRGNADEARKMGKEGVEAEFGDTHVHGADQVKEYVKKVKDVGAHVEYKEVEYKGDTVTVKTEVTRGDAKVTFEVKYQAKGDKVVNLEMKFNKEQMKEFKKS`
output: -0.015

input: Another sequence: `DREAKKRADQYMEVIQNGDPEKFKHQADENVRVEVGNHEYHGRESMAKELKKRRDEIRIDIRRYSIDNQGEKVRIEVDAVAQINGRPRTYSYVFEMTFQNGRIKKFTLQISEDDEQNLKS`
output: 0.014
